# subject of test: TbMDO (Trypanosoma brucei MacroD-like protein) (Trypanosoma brucei)
# Construct: gene TbgDal_V3640; full-length, codon-optimized synthetic cDNA, pNH-TrxT vector, E. coli BL21(DE3), fusion tags cut with TEV protease; crystal structures comprise residues 11-261
# Sequence (C9ZP98 1-265): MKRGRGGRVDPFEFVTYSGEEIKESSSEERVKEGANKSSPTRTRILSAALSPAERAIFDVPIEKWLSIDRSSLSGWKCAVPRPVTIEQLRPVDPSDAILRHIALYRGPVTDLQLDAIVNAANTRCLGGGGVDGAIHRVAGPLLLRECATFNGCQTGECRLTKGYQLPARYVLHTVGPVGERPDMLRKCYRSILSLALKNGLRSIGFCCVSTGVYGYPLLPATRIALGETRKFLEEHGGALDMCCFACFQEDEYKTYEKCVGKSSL
# experiment: isothermal titration calorimetry
# Format: binding
# experimental parameters: read-out: KD
measured endpoint: Kd

>  <query smiles>
Nc1ncnc2c1ncn2[C@@H]1O[C@H](COP(=O)(O)OP(=O)(O)O)[C@@H](O)[C@H]1O

>  <result>
1.9 mM

$$$$

---

# subject of test: TcMDO (Trypanosoma cruzi MacroD-like protein) (Trypanosoma cruzi, UniProt Q4DQ03)
# Construct: gene Tc00.1047053509179.20; full-length, codon-optimized synthetic cDNA, pNH-TrxT vector, E. coli BL21(DE3), fusion tags cut with TEV protease; crystal structure comprises residues 13-257
# Sequence (Q4DQ03 1-267): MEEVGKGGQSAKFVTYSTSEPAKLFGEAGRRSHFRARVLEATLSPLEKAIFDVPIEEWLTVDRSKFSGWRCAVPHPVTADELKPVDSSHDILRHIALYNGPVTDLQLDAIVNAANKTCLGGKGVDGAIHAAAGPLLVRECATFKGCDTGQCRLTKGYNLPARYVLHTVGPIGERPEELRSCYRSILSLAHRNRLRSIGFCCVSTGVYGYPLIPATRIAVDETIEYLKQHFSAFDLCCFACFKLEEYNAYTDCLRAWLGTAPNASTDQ
# experiment: isothermal titration calorimetry
# Type: binding
# experimental parameters: read-out: KD
pKd: −log10 of the molar value.

>  <query smiles>
Nc1ncnc2c1ncn2[C@@H]1O[C@H](COP(=O)(O)OP(=O)(O)O)[C@@H](O)[C@H]1O

>  <subject of test>
TcMDO (Trypanosoma cruzi MacroD-like protein) (Trypanosoma cruzi, UniProt Q4DQ03)

>  <pKd>
3.10

$$$$
